# protocolDescription: Antiinflammatory activity in human PMNC cells assessed as inhibition of fMLP-induced NOX-dependent ROS production up to 50 uM
# Type: functional, cell-based
# testContext: Homo sapiens, PMNC; read-out: IC50
pIC50: −log10 of the molar value.
metric: pIC50

>  <compound>
C[C@H](/C=C/[C@H](C)[C@H](C)CO)[C@H]1CC[C@H]2C3=CC[C@H]4CC(=O)CC[C@]4(C)[C@H]3CC[C@]12C

>  <measured>
4.76

$$$$
>  <compound>
C=C(CC[C@@H](C)[C@H]1CC[C@H]2C3=C(C(=O)C[C@]12C)[C@@]1(C)CC[C@@H](O)[C@@H](C)[C@@H]1C[C@@H]3O)C(C)C(=O)O (stereo not given in full)

>  <measured>
4.49

$$$$
>  <compound>
C=C(CC[C@@H](C)[C@H]1CC[C@H]2C3=C(C(=O)C[C@]12C)[C@@]1(C)CCC(=O)[C@@H](C)[C@@H]1C[C@@H]3O)C(C)C(=O)O (stereo not given in full)

>  <measured>
4.65

$$$$
>  <compound>
C=C(CC[C@@H](C)[C@H]1CC[C@H]2C3=C(C(=O)C[C@]12C)[C@@]1(C)CCC(=O)[C@@H](C)[C@@H]1C[C@@H]3O)C(C)C(=O)OC (stereo not given in full)

>  <measured>
4.95

$$$$
>  <compound>
C=C(CC[C@@H](C)[C@H]1CC[C@H]2C3=C(C(=O)C[C@]12C)[C@@]1(C)CCC(=O)[C@@H](C)[C@@H]1CC3=O)C(C)C(=O)OC (stereo not given in full)

>  <measured>
5.08

$$$$
